Where these numbers come from: PubChem BioAssay (NCI)

test system: OVCAR-4 ovarian; assay: NCI tumour cell line growth inhibition, 48 h
So I've got a bunch of compounds here, and I need their TGI values.

Below: 3 compounds and their reported TGI.
>>> assay_result("CC1=CCC[C@@]2(C)C(CC[C@@H]2C(C)/C=C/C(C)C)c2ccc(cc2C(=O)O)C[C@@H](O)CC1 (stereo not given in full)")
"25.6 µM"
>>> assay_result("N#Cc1cccc(N2C(=O)c3c(c(-c4ccccc4)c(-c4ccc(Sc5ccc(-c6c(-c7ccccc7)c7c(c(-c8ccccc8)c6-c6ccccc6)C(=O)N(c6cccc(C#N)c6)C7=O)cc5)cc4)c(-c4ccccc4)c3-c3ccccc3)C2=O)c1")
"> 100 µM"
>>> assay_result("CC1=NN(c2nc(N)nc(-c3ccccc3S(N)(=O)=O)n2)C(C)(C)C1")
"> 100 µM"

Field: TGI. Fill in for each record below.
1. COC(=O)[C@H](Cc1ccccc1)NC(=O)c1ccc(CNC(=O)/C=C/c2ccc(-c3ccccc3)cc2)cc1
2. O=C(c1ccccc1)c1c(NCC(O)CN2CCCC2)n(Cc2ccccc2)c(=O)n(Cc2ccccc2)c1=O (stereo not given)
3. O=S(=O)(Nc1ncccn1)c1ccc(N=Nc2ccc(O)c3ncccc23)cc1
4. CCOC(=O)c1cccc(NC(=O)CCl)c1
5. C=C(C)[C@@H]1CC[C@]2(C(=O)O)CC[C@]3(C)[C@H](CC[C@@H]4[C@@]5(C)CC(=O)C(C)(C)[C@@H]5CC[C@]43C)[C@@H]12
6. O=C(COc1ccc(OCC(=O)N2C(=O)CC(=O)N(c3ccccc3)C2=S)cc1)N1C(=O)CC(=O)N(c2ccccc2)C1=S

1. > 100 µM
2. 57.1 µM
3. 71.7 µM
4. 8.31 µM
5. > 25 µM
6. > 100 µM
